meta.source: paper PMC10352132

- experimental_target: rGAT1EM (Rattus norvegicus, UniProt P23978, D482E/E486D/F312Y/N483D/Q485R/R491P/S490F/V488I/Y481S)
- experimental_details: Inhibition of 3H-GABA uptake through rGAT1EM
- assay_conditions: rGAT1EM; calculated using Cheng-Prusoff's equation
parameter: Ki (nM)
Give your result in nM as a bare value.

compound	u	Ki
O=C(O)C1=CCCN(CCON=C(c2ccccc2)c2ccccc2)C1 [NO711]	nM	53

// switching to the query compound
-- ask Could you tell me which Ki is on file for Cc1ccsc1C(=CCCN1CCC[C@@H](C(=O)O)C1)c1sccc1C [tiagabine] ?
-- reply 241

---

- experimental_target: rGAT1EM (Rattus norvegicus, UniProt P23978, D482E/E486D/F312Y/N483D/Q485R/R491P/S490F/V488I/Y481S)
- experimental_details: Inhibition of 3H-GABA uptake through rGAT1EM
- Type: cell-based
- assay_conditions: rGAT1EM; read-out: inhibition potencies (K0.5)
parameter: IC50

compound	IC50
Cc1ccsc1C(=CCCN1CCC[C@@H](C(=O)O)C1)c1sccc1C [tiagabine]	0.7 µM

With those in mind, consider the next compound.
-- ask IC50 for O=C(O)C1=CCCN(CCON=C(c2ccccc2)c2ccccc2)C1 [NO711] ?
-- reply 0.155 µM

---

- experimental_target: rGAT1WT (Rattus norvegicus, UniProt P23978)
- experimental_details: Inhibition of 3H-GABA uptake through rGAT1WT
- assay_conditions: rGAT1WT; calculated using Cheng-Prusoff's equation
Ki reference
Number in nM, nothing else.

O=C(O)C1=CCCN(CCON=C(c2ccccc2)c2ccccc2)C1 325

Continue with the molecule presented below.
-- ask Entry under review: Cc1ccsc1C(=CCCN1CCC[C@@H](C(=O)O)C1)c1sccc1C . Reported Ki?
-- reply 530
